Recorded values, source patent US20240325486A1.

# measured-on: CMKLR1 (recombinant, species not given)
# protocol: cell-based or functional assay
Non-standard residues stand in square brackets, D forms with d. No end group written: not given here. Tic = O=C(O)[C@@H]1Cc2ccccc2CN1
Items are presented alongside their recorded β-Arrestin recruitment, Max Efficacy (% 10 µM s-Stable chem9).
Answer with a number only, understood to be in %.

For orientation, consider the following solved cases.
1. [dY]FLP[dS]QF[dA][Tic]S (also: C14:1 lipid tail, linker and attachment not given here) [C14:1 lipidated stable chemerin 9 analog]	124
2. [dY]FLP[dS]QF[dA][Tic]S [s-Stable Chem (soluble stable chemerin peptide)]	100
3. [dY]FLP[dS]QF[dA][Tic]S (also: C10 lipid tail, linker and attachment not given here) [C10 lipidated stable chemerin 9 analog]	98.3
4. [dY]FLP[dS]QF[dA][Tic]S (also: cholesterol lipid tail, linker and attachment not given here) [Cholesterol lipidated stable chemerin 9 analog]	149
5. [dY]FLP[dS]QF[dA][Tic]S (also: C16 (palmitic acid) lipid tail, linker and attachment not given here) [C16 lipidated stable chemerin 9 analog]	165

Incoming: Dear colleague, please send me the reported β-Arrestin recruitment, Max Efficacy (% 10 µM s-Stable chem9) for [dY]FLP[dS]QF[dA][Tic]S (also: C16:1 lipid tail, linker and attachment not given here) [C16:1 lipidated stable chemerin 9 analog] when you can.
Outgoing: 154

Incoming: Dear colleague, please send me the reported β-Arrestin recruitment, Max Efficacy (% 10 µM s-Stable chem9) for [dY]FLP[dS]QF[dA][Tic]S (also: C4 lipid tail, linker and attachment not given here) [C4 lipidated stable chemerin 9 analog] when you can.
Outgoing: 89.7

Incoming: Dear colleague, please send me the reported β-Arrestin recruitment, Max Efficacy (% 10 µM s-Stable chem9) for [dY]FLP[dS]QF[dA][Tic]S (also: C18:3 (linolenic acid) lipid tail, linker and attachment not given here) [C18:3 lipidated stable chemerin 9 analog] when you can.
Outgoing: 110

Incoming: Dear colleague, please send me the reported β-Arrestin recruitment, Max Efficacy (% 10 µM s-Stable chem9) for [dY]FLP[dS]QF[dA][Tic]S (also: C18:1 lipid tail (which C18:1 acid not given here), linker and attachment not given here) [C18:1 lipidated stable chemerin 9 analog] when you can.
Outgoing: 160
